Data origin, for the record: PubChem BioAssay AID720596

# Experimental target: Major prion protein (Homo sapiens)
# Assay remarks: reduces human prion protein on the cell surface, primary screen, cell-based, TR-FRET (AID 720596); further: 0% = median of the test wells and 100% = reference compound wells
# Cond: cell surface PrPC, TR-FRET read-out; at 13.8 µM; active compounds read high
Hit rate of the full screen: of about 370,000 compounds, about 1,600 (0.43%) were called active. The sample as a whole holds a higher share of actives than the screen did.
Recorded inhibition values for a group of compounds are listed next.
Output spec: scalar in %, unitless text.

Cc1ccc(S(=O)(=O)NCC2CCC(C(=O)N3CCOCC3)CC2)cc1 (configuration not stated) : 9.49
CCC(C)[C@@H](C(=O)OC)N(CCc1cn(Cc2ccccc2)nn1)S(=O)(=O)c1ccccc1Br (some centres not stated) : 2.07
CC(=O)c1nc(N2C(=O)C3CC=C(C)CC3C2=O)sc1C (configuration not stated) : 38.2
O=C(CCn1nnnc1CN1CCOCC1)N1CCC(c2ccccc2Cl)C1 (configuration not stated) : 1.76
CN(CCC(=O)Nc1cc(S(=O)(=O)N(C)C)ccc1Cl)CC(=O)Nc1ccc(F)cc1 : -6.03
N#Cc1c(-c2ccc(Cl)cc2)c2c([nH]c1=S)CCCC2 : -2.9
Cc1[nH]c(C)c(S(=O)(=O)N2CCC(C)CC2)c1C(=O)N1CCCC1 : -7.7
CC(=O)N1c2ccc(S(=O)(=O)N3CCCC(C(=O)Nc4cccc(F)c4)C3)cc2CC1C (configuration not stated) : 51.1

# evaluate next
Query: Request the reported inhibition associated with CCc1ccc(Oc2coc3cc(OC(=O)c4cc5ccccc5oc4=O)ccc3c2=O)cc1
Result: -6.51

###

# Experimental target: Major prion protein (Homo sapiens) (UniProt P04156)
# Assay remarks: reduces human prion protein on the cell surface, primary screen, cell-based, TR-FRET (AID 720596); further: 0% = median of the test wells and 100% = reference compound wells
# Cond: cell surface PrPC, TR-FRET read-out; at 13.8 µM
About 1,600 (0.43%) of roughly 370,000 compounds were called active. No stated cut-off is given here; in the data, active means inhibition above about 24%; inactive means the rest. The entries come from a sample that favours actives as a whole.
Entry note: the call must match one of 1 = active, -1 = inactive

CCCCNC(=O)c1onc(CSc2cccc(OC)c2)c1C(=O)O : -1
COc1ccc(S(=O)(=O)N2CCOCC2)cc1NC(=O)CSc1ncnc2ccccc12 : 1
Cc1c(C)n2c(SCC(=O)N3CCCC3)nnc2[nH]c1=O : -1
CCCCN(CC)C(=O)C1CCCN(S(=O)(=O)c2cccc3nsnc23)C1 (stereo not drawn) : -1
O=C(CSc1nc2c(c(=O)[nH]1)CCCC2)N1CCCCC1 : -1
CC1=CCC2C(=O)N(c3cccc(C(=O)NC(C)c4ccccc4)c3)C(=O)C2C1 (stereo not drawn) : -1

Query: Which result was noted for this compound in the test: CC1CC1C(=O)OCC(=O)Nc1cccc(F)c1 (stereo not drawn)
Result: -1

Query: Which result was noted for this compound in the test: O=C(COC(=O)CNC(=O)C1CCCCC1)Nc1cccc(F)c1
Result: -1

Query: Which result was noted for this compound in the test: CC1(C)CC(N2CCN(C(c3ccccc3)c3ccccc3)CC2)=CC(=[N+]2CCCCC2)C1
Result: 1

Query: Which result was noted for this compound in the test: CCCCNc1c(-c2cccc(Sc3ccc(OC)cc3)c2)nc2ccccn12
Result: 1

###

Recorded inhibition values for a group of molecules are listed next.
# Experimental target: Major prion protein (Homo sapiens) (UniProt P04156)
# Assay remarks: reduces human prion protein on the cell surface, primary screen, cell-based, TR-FRET (AID 720596); further: 0% = median of the test wells and 100% = reference compound wells
# Cond: cell surface PrPC, TR-FRET read-out; at 13.8 µM; active compounds read high
The whole screen tested about 370,000 compounds, of which about 1,600 (0.43%) were called active. The entries come from a sample that favours actives as a whole.
Output spec: scalar in %, unitless text.

O=C(Oc1ccccc1)Oc1ccc2c(c1)oc(=O)c1ccccc12 : 31.3
Fc1ccc(COc2ccc(-c3nnco3)cc2)cc1 : 1.45
CN(C)CCNC(=O)c1ccc(Cl)c2cc3ccccc3nc12 : 34.5
COc1ccc(S(=O)(=O)N2CCOCC2)cc1NC(=O)CSc1nnc(NC2CC2)s1 : 7.4
Cc1sc2c(c1C)c(=O)n(-c1ccccc1)c1nncn21 : -3.5
COc1cc(C)c(C(C)C)cc1S(=O)(=O)n1ccnc1 : -1.35
Cc1cc2ccccc2n1CCNC(=O)COc1ccc2ccccc2c1 : 45.2

Query: Request the reported inhibition associated with Cc1sc(NC(=O)C2C3CCC(O3)C2C(=O)O)c(C(=O)OC(C)C)c1-c1ccc(Cl)cc1 (stereo not drawn)
Result: 7.78
